# System: HSC2 (primary human Schwann cells)
# assay.text: drug sensitivity score (DSS, CellTiter-Glo viability, 72 h) (DSS (dimensionless)); higher = more sensitive; extreme values may be limits of the assay
observable: drug sensitivity score
One number for each entry.

These solved cases illustrate the format of a correct answer.
| molecule | observable | measured.value |
| --- | --- | --- |
| Cn1cc(C2=C(c3cn(C4CCN(Cc5ccccn5)CC4)c4ccccc34)C(=O)NC2=O)c2ccccc21 [Enzastaurin] (max concentration tested 10000 nM) | drug sensitivity score | 1.06 |
| CNC(=O)c1cc(Oc2ccc(NC(=O)Nc3ccc(Cl)c(C(F)(F)F)c3)cc2)ccn1 [Sorafenib] (max concentration tested 1000 nM) | drug sensitivity score | 0 |
| CN1CCN(c2ccc3nc(-c4c(N)c5c(F)cccc5[nH]c4=O)[nH]c3c2)CC1 [Dovitinib] (max concentration tested 10000 nM) | drug sensitivity score | 0.382 |
| CC(C)C[C@H](NC(=O)[C@H](CCc1ccccc1)NC(=O)CN1CCOCC1)C(=O)N[C@@H](Cc1ccccc1)C(=O)N[C@@H](CC(C)C)C(=O)[C@@]1(C)CO1 [Carfilzomib] (max concentration tested 1000 nM) | drug sensitivity score | 24.4 |
| C[C@H]1C[C@@H]2[C@H]([C@@H](O)C[C@@]3(C)[C@H]2CC[C@]3(O)C(=O)CO)[C@@]2(C)C=CC(=O)C=C12 [Methylprednisolone] (max concentration tested 10000 nM) | drug sensitivity score | 0 |
| CC1(C)NC(=O)N(c2ccc([N+](=O)[O-])c(C(F)(F)F)c2)C1=O [Nilutamide] (max concentration tested 10000 nM) | drug sensitivity score | 0 |
| O=C1CCC(N2C(=O)c3ccccc3C2=O)C(=O)N1 (stereo not drawn) [Thalidomide] (max concentration tested 10000 nM) | drug sensitivity score | 0 |
| O=C(/C=C/c1cccc(S(=O)(=O)Nc2ccccc2)c1)NO [Belinostat] (max concentration tested 10000 nM) | drug sensitivity score | 13.2 |

Parameters: items (list). Returns: drug sensitivity score for each item.
1. Cc1ccc(C(=O)Nc2ccc(CN3CCN(C)CC3)c(C(F)(F)F)c2)cc1C#Cc1cnc2cccnn12 [Ponatinib] (max concentration tested 1000 nM)
2. Cc1cccc(-c2nn3c(c2-c2ccnc4ccc(C(N)=O)cc24)CCC3)n1 [Galunisertib] (max concentration tested 1000 nM)
3. N[C@@H](Cc1ccc(N(CCCl)CCCl)cc1)C(=O)O [Melphalan aq] (max concentration tested 12500 nM)
4. CNCc1ccc(-c2[nH]c3cc(F)cc4c3c2CCNC4=O)cc1 [Rucaparib] (max concentration tested 10000 nM)
5. Cc1sc2c(c1C)C(c1ccc(Cl)cc1)=N[C@@H](CC(=O)OC(C)(C)C)c1nnc(C)n1-2 [(+)JQ1] (max concentration tested 10000 nM)
6. CC1=NN(c2ccc(C(=O)O)cc2)C(=O)C1=Cc1ccc(-c2cc(C)c(C)cc2[N+](=O)[O-])o1 [C646] (max concentration tested 25000 nM)
7. CC(=O)Nc1ccc(C(=O)Nc2ccccc2N)cc1 [Tacedinaline] (max concentration tested 1000 nM)

## Result
[6.49, 0, 0, 0, 10.4, 0, 0]

Return reported drug sensitivity score values for all items listed beneath this line.
1. Cc1cn(-c2cc(NC(=O)c3ccc(C)c(Nc4nccc(-c5cccnc5)n4)c3)cc(C(F)(F)F)c2)cn1 [Nilotinib] (max concentration tested 10000 nM)
2. CN(C)C(=N)NC(=N)N [Metformin aq] (max concentration tested 100000 nM)

## Result
1. 0
2. 0

* * *

# Tested on: HS-Sch-2
# assay.text: % inhibition of CellTiter-Glo viability at highest tested concentration (72 h), relative to DMSO and benzethonium chloride controls; higher = more inhibition
observable: % inhibition
Include the unit after the number when you answer.

Example compounds with recorded % inhibition:
| compound | % inhibition |
| --- | --- |
| COc1ccc(S(=O)(=O)Nc2cccnc2Nc2ccc(O)cc2)cc1 [ABT-751] (max concentration tested 10000 nM) | 87.8% |
| COc1cccc(OCCCN)c1-c1cc(Nc2cnc(C#N)cn2)n[nH]1 [Prexasertib] (max concentration tested 10000 nM) | 88.6% |
| CN(C)CCOc1ccc(/C(=C(/CCCl)c2ccccc2)c2ccccc2)cc1 [Toremifene] (max concentration tested 10000 nM) | 37.2% |
| O=C(O)CC[C@H]1CC[C@@](c2cc(F)ccc2F)(S(=O)(=O)c2ccc(Cl)cc2)CC1 [MK-0752] (max concentration tested 1000 nM) | 10.9% |
| Cc1[nH]c(/C=C2\C(=O)Nc3ccccc32)c(C)c1CCC(=O)O [Orantinib] (max concentration tested 10000 nM) | 0.75% |

Give measured % inhibition for every item shown.
1. C[C@]12CC[C@H](O)CC1=CC[C@@H]1[C@@H]2CC[C@]2(C)C(c3cccnc3)=CC[C@@H]12 [Abiraterone] (max concentration tested 5000 nM)
2. CN(C)/N=N/c1[nH]cnc1C(N)=O [Dacarbazine] (max concentration tested 10000 nM)
3. C=CC(=O)Nc1cc(Nc2nccc(-c3cn(C)c4ccccc34)n2)c(OC)cc1N(C)CCN(C)C [Osimertinib] (max concentration tested 2500 nM)
4. NS(=O)(=O)NCCNc1nonc1/C(=N/O)Nc1ccc(F)c(Br)c1 [Epacadostat] (max concentration tested 10000 nM)
5. CNc1ncc2cc(-c3cc(NC(=O)NCCC(C)(C)C)c(F)cc3C)c(C)nc2n1 (max concentration tested 10000 nM)
6. C=CC[C@@H]1/C=C(\C)C[C@H](C)C[C@H](OC)[C@H]2O[C@@](O)(C(=O)C(=O)N3CCCC[C@H]3C(=O)O[C@H](/C(C)=C/[C@@H]3CC[C@@H](O)[C@H](OC)C3)[C@H](C)[C@@H](O)CC1=O)[C@H](C)C[C@@H]2OC [Tacrolimus] (max concentration tested 10000 nM)
7. CCN(CCO)CCCOc1ccc2c(Nc3cc(CC(=O)Nc4cccc(F)c4)[nH]n3)ncnc2c1 [AZD1152-HQPA] (max concentration tested 1000 nM)

## Result
1. 3.26%
2. 7.05%
3. 73.2%
4. 13.3%
5. 55.9%
6. -0.54%
7. 0.66%

* * *

I'd be grateful if you could share measured % inhibition for these entries.
# System: YST-1
# assay.text: % inhibition of CellTiter-Glo viability at highest tested concentration (72 h), relative to DMSO and benzethonium chloride controls; higher = more inhibition
Provide the measurement as a number trailed by its unit.

Hey, can you go through the list below and give me % inhibition for every item?
1. O=C(/C=C/c1cccnc1)NCCCCC1CCN(C(=O)c2ccccc2)CC1 [Daporinad] (max concentration tested 1000 nM)
2. CC(O)(CS(=O)(=O)c1ccc(F)cc1)C(=O)Nc1ccc(C#N)c(C(F)(F)F)c1 (stereo unspecified) [Bicalutamide] (max concentration tested 10000 nM)

## Result
["101%", "-3.03%"]

Parameter requested: % inhibition. Apply to each item below.
1. O=C(O)c1ccc(-c2c[nH]c3ncc(-c4ccccc4)cc23)cc1C1CCCC1 (max concentration tested 10000 nM)
2. CC/C(=C(\c1ccc(O)cc1)c1ccc(OCCN(C)C)cc1)c1ccccc1 [4-hydroxytamoxifen] (max concentration tested 10000 nM)
3. c1cn2cc(-c3ccc4cn[nH]c4c3)nc(Nc3ccc(N4CCOCC4)cc3)c2n1 [Entospletinib] (max concentration tested 5000 nM)
4. CC(C)Nc1cc(-c2c[nH]c(C(=O)N[C@H](CO)c3cccc(Cl)c3)c2)c(Cl)cn1 [Ulixertinib] (max concentration tested 10000 nM)

## Result
9.07%
32.7%
12%
41.1%

* * *

Could you please report measured % inhibition for the items listed next?
# Test system: ST8814
# assay.text: % inhibition of CellTiter-Glo viability at highest tested concentration (72 h), relative to DMSO and benzethonium chloride controls; higher = more inhibition
Give bare numbers, in %.

Past entries and their recorded results:
| compound | % inhibition / % |
| --- | --- |
| CC1=C2C[C@H]3[C@@H](CC=C4C[C@@H](O)CC[C@@]43C)[C@@H]2CC[C@]12O[C@@H]1C[C@H](C)CN[C@H]1[C@H]2C [Cyclopamine] (max concentration tested 10000 nM) | -4.3 |
| COc1cc2/c(=N/c3ccc(Br)cc3F)nc[nH]c2cc1OCC1CCN(C)CC1 [Vandetanib] (max concentration tested 1000 nM) | 1.05 |
| NS(=O)(=O)OC[C@@H]1C[C@@H](n2ccc3c(N[C@H]4CCc5ccccc54)ncnc32)C[C@@H]1O [Pevonedistat] (max concentration tested 10000 nM) | 95.6 |
| Cc1cn(-c2cc(NC(=O)c3ccc(C)c(Nc4nccc(-c5cccnc5)n4)c3)cc(C(F)(F)F)c2)cn1 [Nilotinib] (max concentration tested 10000 nM) | -12.2 |
| O=C(O)CCCc1ccc(N(CCCl)CCCl)cc1 [Chlorambucil] (max concentration tested 10000 nM) | -14.6 |

List reported % inhibition for each of these compounds:
1. CC(C)(C)c1cc(NC(=O)Nc2ccc(-c3cn4c(n3)sc3cc(OCCN5CCOCC5)ccc34)cc2)no1 [Quizartinib] (max concentration tested 1000 nM)
2. CCCCCCCCCCCCCCCCCCOP(=O)([O-])OC1CC[N+](C)(C)CC1 [Perifosine aq/PBS] (max concentration tested 2500 nM)
3. C[C@]1(c2nc3c(C(N)=O)cccc3[nH]2)CCCN1 [Veliparib] (max concentration tested 10000 nM)

## Result
1: 15.8; 2: 23.6; 3: 9.88

Can you give me % inhibition for all of these, one by one?
1. O=C(c1ccc(OCCN2CCCCC2)cc1)c1c(-c2ccc(O)cc2)sc2cc(O)ccc12 [Raloxifene] (max concentration tested 10000 nM)
2. NC(=O)c1cccc2cn(-c3ccc(C4CCCNC4)cc3)nc12 (stereo not given) [MK-4827] (max concentration tested 10000 nM)

## Result
[36.5, 89.5]

The reported numbers originate from the supplement of paper PMC5579334.
